ASSAY_TARGET: CCRF-CEM cells (Homo sapiens, UniProt P61073)
Sequence (P61073 whole entry): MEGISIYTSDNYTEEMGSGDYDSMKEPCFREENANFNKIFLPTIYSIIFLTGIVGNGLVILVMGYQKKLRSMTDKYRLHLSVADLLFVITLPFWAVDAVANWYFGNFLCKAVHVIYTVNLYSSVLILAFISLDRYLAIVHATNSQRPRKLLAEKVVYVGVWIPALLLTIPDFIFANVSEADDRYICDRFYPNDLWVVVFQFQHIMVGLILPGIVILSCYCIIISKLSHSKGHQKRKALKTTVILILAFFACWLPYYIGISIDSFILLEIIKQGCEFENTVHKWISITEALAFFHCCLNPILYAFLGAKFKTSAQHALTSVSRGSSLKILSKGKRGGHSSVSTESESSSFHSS
EXPERIMENTAL_PARAMETERS: read-out: IC50 (μM) Cell migration assay; CCRF-CEM cells migrating to 1 nM SDF-1, 4 hours
Where a SMILES comes first, the peptide text is derived from it. Bridges are numbered along the chain shown (N, C = ends). [ ]: non-standard residue; d: D form. 2Nal = N[C@@H](Cc1ccc2ccccc2c1)C(=O)O; Cit = NC(=O)NCCC[C@H](N)C(=O)O
MEASUREMENT_TYPE: IC50

compound="N=C(N)NCCC[C@H](NC(=O)[C@@H]1CSSC[C@H](NC(=O)[C@H](Cc2ccc3ccccc3c2)NC(=O)[C@H](CCCNC(=N)N)NC(=O)[C@@H](N)CCCNC(=N)N)C(=O)N[C@@H](Cc2ccc(O)cc2)C(=O)N[C@@H](CCCNC(N)=O)C(=O)N[C@@H](CCCCN)C(=O)N2CCC[C@@H]2C(=O)N2CCC[C@H]2C(=O)N[C@@H](Cc2ccc(O)cc2)C(=O)N[C@@H](CCCNC(=N)N)C(=O)N[C@@H](CCCNC(N)=O)C(=O)N1)C(N)=O [Example 7] (H-RR[2Nal]CY[Cit]K[dP]PYR[Cit]CR-NH2; disulfide 4-13; N-terminus assumed)" result_value="0.55 µM"

====

ASSAY_TARGET: CXCR4 (Homo sapiens, UniProt P61073)
Construct: expressed in transfected cells
Sequence (P61073 whole entry): as above
ASSAY_NOTES: Ca2+ assay: CXCR4 antagonizing activity of the peptides
Assay type: cell-based
EXPERIMENTAL_PARAMETERS: CXCR4 transfected pre-B cells, Fura-2 fluorescence, 37° C.
*1 amine or outer side, *2 acyl side, *3 side chain or, on linkers, in order; H or OH if unused. Where a SMILES comes first, the peptide text is derived from it. Bridges are numbered along the chain shown (N, C = ends). [ ]: non-standard residue; d: D form. NHCH2(1,3-C6H4)CH2CO = O=C(Cc1cccc(CN[*:1])c1)[*:2]; 2Nal = N[C@@H](Cc1ccc2ccccc2c1)C(=O)O; Cit = NC(=O)NCCC[C@H](N)C(=O)O
MEASUREMENT_TYPE: IC50

compound="CC(=O)N[C@@H](CCCNC(=N)N)C(=O)N[C@@H](CCCNC(=N)N)C(=O)N[C@@H](Cc1ccc2ccccc2c1)C(=O)N[C@H]1CSSC[C@@H](C(=O)N[C@@H](CCCNC(=N)N)C(N)=O)NC(=O)[C@H](CCCNC(N)=O)NC(=O)[C@H](CCCNC(=N)N)NC(=O)[C@H](Cc2ccc(O)cc2)NC(=O)[C@@H]2CCCN2C(=O)[C@H]2CCCN2C(=O)[C@H](CCCCN)NC(=O)[C@H](CCCNC(N)=O)NC(=O)[C@H](Cc2ccc(O)cc2)NC1=O [Example 8] (Ac-RR[2Nal]CY[Cit]K[dP]PYR[Cit]CR-NH2; disulfide 4-13)" assay_target="CXCR4 (Homo sapiens, UniProt P61073)" measurement_type=IC50 result_value="13.9 nM"
compound="N=C(N)NCCC[C@H](NC(=O)[C@@H]1CSSC[C@H](NC(=O)[C@H](Cc2ccc3ccccc3c2)NC(=O)[C@H](CCCNC(=N)N)NC(=O)[C@@H](N)CCCNC(=N)N)C(=O)N[C@@H](Cc2ccc(O)cc2)C(=O)N[C@@H](CCCNC(N)=O)C(=O)N[C@@H](CCCCN)C(=O)NCc2cccc(c2)CC(=O)N[C@@H](Cc2ccc(O)cc2)C(=O)N[C@@H](CCCNC(=N)N)C(=O)N[C@@H](CCCNC(N)=O)C(=O)N1)C(N)=O [Example 22] (H-RR[2Nal]CY[Cit]K[NHCH2(1,3-C6H4)CH2CO]YR[Cit]CR-NH2; disulfide 4-12)" assay_target="CXCR4 (Homo sapiens, UniProt P61073)" measurement_type=IC50 result_value="80.3 nM"
compound="N=C(N)NCCC[C@H](NC(=O)[C@@H]1CSSC[C@H](NC(=O)[C@H](Cc2ccc3ccccc3c2)NC(=O)[C@H](CCCNC(=N)N)NC(=O)[C@@H](N)CCCNC(=N)N)C(=O)N[C@@H](Cc2ccc(O)cc2)C(=O)N[C@@H](CCCCN)C(=O)N[C@H](CCCCN)C(=O)N2CCC[C@H]2C(=O)N[C@@H](CCCNC(=N)N)C(=O)N[C@@H](CCCNC(N)=O)C(=O)N1)C(N)=O [Example 3] (H-RR[2Nal]CYK[dK]PR[Cit]CR-NH2; disulfide 4-11; N-terminus assumed)" assay_target="CXCR4 (Homo sapiens, UniProt P61073)" measurement_type=IC50 result_value="490 nM"
compound="N=C(N)NCCC[C@H](NC(=O)[C@@H]1CSSC[C@H](NC(=O)[C@H](Cc2ccc3ccccc3c2)NC(=O)[C@H](CCCNC(=N)N)NC(=O)[C@@H](N)CCCNC(=N)N)C(=O)N[C@@H](Cc2ccc(O)cc2)C(=O)N[C@@H](CCCNC(=N)N)C(=O)N2CCC[C@@H]2C(=O)N2CCC[C@H]2C(=O)N[C@@H](Cc2ccc(O)cc2)C(=O)N[C@@H](CCCNC(=N)N)C(=O)N1)C(N)=O [Example 5] (H-RR[2Nal]CYR[dP]PYRCR-NH2; disulfide 4-11; N-terminus assumed)" assay_target="CXCR4 (Homo sapiens, UniProt P61073)" measurement_type=IC50 result_value="132 nM"

====

Tested on: human red blood cells (hRBC)
Format: cell-based
EXPERIMENTAL_PARAMETERS: red cells of human, 1 h
Where a SMILES comes first, the peptide text is derived from it. Bridges are numbered along the chain shown (N, C = ends). [ ]: non-standard residue; d: D form. 2Nal = N[C@@H](Cc1ccc2ccccc2c1)C(=O)O; Cit = NC(=O)NCCC[C@H](N)C(=O)O
Each entry gets Not met if its Hemolysis at 100 μM stays under 0.7%, and Met if its Hemolysis at 100 μM is 0.7% or above.

molecule="N=C(N)NCCC[C@H](NC(=O)[C@@H]1CSSC[C@H](NC(=O)[C@H](Cc2ccc3ccccc3c2)NC(=O)[C@H](CCCNC(=N)N)NC(=O)[C@@H](N)CCCNC(=N)N)C(=O)N[C@@H](Cc2ccc(O)cc2)C(=O)N[C@@H](CCCNC(=N)N)C(=O)N[C@H](CCCCN)C(=O)N2CCC[C@H]2C(=O)N[C@@H](Cc2ccc(O)cc2)C(=O)N[C@@H](CCCNC(N)=O)C(=O)N1)C(N)=O [Example 2] (H-RR[2Nal]CYR[dK]PY[Cit]CR-NH2; disulfide 4-11)" label_class=Met
molecule="N=C(N)NCCC[C@H](NC(=O)[C@@H]1CSSC[C@H](NC(=O)[C@H](Cc2ccc3ccccc3c2)NC(=O)[C@H](CCCNC(=N)N)NC(=O)[C@@H](N)CCCNC(=N)N)C(=O)N[C@@H](Cc2ccc(O)cc2)C(=O)N[C@@H](CCCNC(N)=O)C(=O)N[C@@H](CCCCN)C(=O)N[C@H]2C[C@H]3C(=O)N[C@@H](CC(=O)N[C@@H](Cc4ccc(O)cc4)C(=O)N[C@@H](CCCNC(=N)N)C(=O)N[C@@H](CCCNC(N)=O)C(=O)N1)C(=O)N3C2)C(N)=O [Example 21]" label_class=Met
molecule="N=C(N)NCCC[C@H](NC(=O)[C@@H]1CSSC[C@H](NC(=O)[C@H](Cc2ccc3ccccc3c2)NC(=O)[C@H](CCCNC(=N)N)NC(=O)[C@@H](N)CCCNC(=N)N)C(=O)N[C@@H](Cc2ccc(O)cc2)C(=O)N[C@@H](CCCCN)C(=O)N[C@H](CCCCN)C(=O)N2CCC[C@H]2C(=O)N[C@@H](Cc2ccc(O)cc2)C(=O)N[C@@H](CCCNC(N)=O)C(=O)N1)C(N)=O [Example 1] (H-RR[2Nal]CYK[dK]PY[Cit]CR-NH2; disulfide 4-11; N-terminus assumed)" label_class="Not met"
molecule="N=C(N)NCCC[C@H](NC(=O)[C@@H]1CSSC[C@H](NC(=O)[C@H](Cc2ccc3ccccc3c2)NC(=O)[C@H](CCCNC(=N)N)NC(=O)[C@@H](N)CCCNC(=N)N)C(=O)N[C@@H](Cc2ccc(O)cc2)C(=O)N[C@@H](CCCNC(N)=O)C(=O)N[C@@H](CCCCN)C(=O)N2CCC[C@@H]2C(=O)N2CCC[C@H]2C(=O)N[C@@H](Cc2ccc(O)cc2)C(=O)N[C@@H](CCCNC(=N)N)C(=O)N[C@@H](CCCNC(N)=O)C(=O)N1)C(N)=O [Example 7] (H-RR[2Nal]CY[Cit]K[dP]PYR[Cit]CR-NH2; disulfide 4-13; N-terminus assumed)" label_class="Not met"
molecule="N=C(N)NCCC[C@@H](N)C(=O)N[C@@H](CCCNC(=N)N)C(=O)N[C@@H](Cc1ccc2ccccc2c1)C(=O)N[C@H]1CSSC[C@@H](C(=O)N[C@@H](CCCNC(=N)N)C(N)=O)NC(=O)[C@H](CCCNC(N)=O)NC(=O)[C@H](CCCNC(=N)N)NC(=O)[C@H](Cc2ccc(O)cc2)NC(=O)[C@@H]2CCCN2C(=O)[C@H]2CCCN2C(=O)[C@H](CCCCN)NC(=O)[C@H](CCCNC(N)=O)NC(=O)[C@H](Cc2ccc(O)cc2)NC1=O [Example 10] (H-[dR]R[2Nal]CY[Cit]K[dP]PYR[Cit]CR-NH2; disulfide 4-13)" label_class="Not met"
molecule="N=C(N)NCCC[C@H](NC(=O)[C@@H]1CSSC[C@H](NC(=O)[C@H](Cc2ccc3ccccc3c2)NC(=O)[C@H](CCCNC(=N)N)NC(=O)[C@@H](N)CCCNC(=N)N)C(=O)N[C@@H](Cc2ccc(O)cc2)C(=O)N[C@@H](CCCCN)C(=O)N2CCC[C@@H]2C(=O)N2CCC[C@H]2C(=O)N[C@@H](Cc2ccc(O)cc2)C(=O)N[C@@H](CCCNC(=N)N)C(=O)N1)C(N)=O [Example 4] (H-RR[2Nal]CYK[dP]PYRCR-NH2; disulfide 4-11; N-terminus assumed)" label_class="Not met"
molecule="N=C(N)NCCC[C@H](NC(=O)[C@@H]1CSSC[C@H](NC(=O)[C@H](Cc2ccc3ccccc3c2)NC(=O)[C@H](CCCNC(=N)N)NC(=O)[C@@H](N)CCCNC(=N)N)C(=O)N[C@@H](Cc2ccc(O)cc2)C(=O)N[C@@H](CCCNC(N)=O)C(=O)N[C@@H](CCCCN)C(=O)N2CCC[C@@H]2C(=O)N2CCC[C@H]2C(=O)N[C@@H](Cc2ccc(O)cc2)C(=O)N[C@@H](CCCNC(=N)N)C(=O)N[C@@H](CCCNC(N)=O)C(=O)N1)C(=O)O [Example 20] (H-RR[2Nal]CY[Cit]K[dP]PYR[Cit]CR-OH; disulfide 4-13)" label_class="Not met"
